I'd appreciate it if you could supply logD values for the items below.
TEST DESCRIPTION: Apparent partition coefficient of the compound at pH7.4
Assay type: physicochemical
CONDITION: octanol/water, pH 7.4; read-out: LogD7.4
One number for each entry.

COMPOUND | MEASUREMENT TYPE | TEST RESULT
COCCOCCOCCOc1ccc(C2=N[C@@](C)(C(=O)O)CS2)c(O)c1 | logD | -1.1
CC1(C)SC(c2ccccc2O)=N[C@H]1C(=O)O | logD | -0.34
CC1(C)SC(c2ccc(O)cc2O)=N[C@H]1C(=O)O | logD | -0.91

List reported logD for each of these compounds:
1. C[C@]1(C(=O)O)CSC(c2ccccc2O)=N1
2. O=C(O)[C@H]1CSC(c2ccccc2O)=N1

-0.34
-0.93

###

Test system: Rattus norvegicus
TEST DESCRIPTION: Iron-clearing efficiency in non-iron-overloaded Sprague-Dawley rat at 300 umol/kg, sc
Type: functional
MEASUREMENT TYPE: Activity (%)
One number for each entry, in %.

Example molecules with recorded Activity:
COMPOUND | Activity [%]
COCCOCCOCCOc1ccc(C2=N[C@@](C)(C(=O)OC(C)C)CS2)c(O)c1 | 22.1
CCOC(=O)[C@@]1(C)CSC(c2ccc(OCCOCCOCCOC)cc2O)=N1 | 11.4
C[C@]1(C(=O)O)CSC(c2ccc(O)cc2O)=N1 | 1.1

// query Activity value for entry "COCCOCCOCCOc1ccc(C2=N[C@@](C)(C(=O)O)CS2)c(O)c1"
8.7

###

TEST DESCRIPTION: Distribution in Sprague-Dawley rat plasma at 300 umol/kg, sc after 8 hrs
Type: ADME, organism-based
MEASUREMENT TYPE: concentration at 8 h (µM)
Give bare numbers, in µM.

Consider the compound shown here: "COc1ccc(C2=N[C@@](C)(C(=O)O)CS2)c(O)c1" What is its recorded concentration at 8 h?
75

###

TEST DESCRIPTION: Distribution in Sprague-Dawley rat plasma at 300 umol/kg, sc after 2 hrs
Format: ADME, organism-based
MEASUREMENT TYPE: concentration at 2 h
Report as: number unit

For the compound shown here, "COc1ccc(C2=N[C@@](C)(C(=O)O)CS2)c(O)c1" , give the reported concentration at 2 h.
470 µM

###

Tested on: Rattus norvegicus
TEST DESCRIPTION: Distribution in Sprague-Dawley rat kidney at 300 umol/kg, sc after 8 hrs
Assay type: ADME, organism-based
CONDITION: in vivo
MEASUREMENT TYPE: Drug uptake (nmol/g)
One number for each entry, in nmol/g.

What does the data say about its Drug uptake? Entry: C[C@]1(C(=O)O)CSC(c2ccc(O)cc2O)=N1 [DEFERITRIN]
9
